Source listed as PubChem BioAssay (NCATS).

# assayRemarks: qHTS of pediatric cancer cell lines to identify multiple opportunities for drug repurposing: Primary screen for BT-12 cells (AID 1347101); further: nearly all actives have a fitted effect of over 25% in size
# particulars: BT-12 viability, CellTiter-Glo luminescence, 48 h; series mostly up to 57.3 µM
Records with an inconclusive call do not appear. Active and inactive are the calls of the source. The call rests on the fitted dose curve; in most records, active means well fitted cell-killing curve with a large enough effect; inconclusive means small, poorly fitted or top-dose-only effect; inactive means flat fitted curve, though single readings scatter.
Could you please pick one outcome from this set? true (1) for active, false (0) for inactive

Input line: Check the results log: what was the call for c1ccc2sc(SSc3nc4ccccc4s3)nc2c1 ?
Output line: false (0)

Input line: Each molecule tested received a call. Report the one for Nc1ccc(O)c(C(=O)O)c1 .
Output line: false (0)

Input line: Could you kindly confirm the outcome this assay logged for C/C(=N\O)c1ccc(OCC(=O)N2CCCCC2)cc1 ?
Output line: false (0)

Input line: How did this test come out for O=C(CS)Nc1ccccc1 ?
Output line: false (0)

Input line: Dear all, I need the recorded test outcome for Nc1cc(-c2ccncc2)c[nH]c1=O , thank you.
Output line: false (0)

Input line: // outcome(item) with item = O=C(O)Cc1ccc2c(c1)C(=O)c1ccccc1CO2
Output line: false (0)

Input line: # lookup: test call for CCCCC1C(=O)N(c2ccccc2)N(c2ccc(O)cc2)C1=O (stereo unspecified)
Output line: true (1)

Input line: Dear colleague, could you share the recorded outcome for CN(C)[C@@H]1C(=O)C(C(=O)NCN2CCCC2)=C(O)[C@@]2(O)C(=O)C3=C(O)c4c(O)cccc4[C@@](C)(O)C3C[C@@H]12 (stereo partly specified) when you have a moment?
Output line: false (0)

Input line: Which result was noted for this molecule in the test: COc1cccc2c1C(=O)c1c(O)c3c(c(O)c1C2=O)C[C@@](O)(C(=O)CO)C[C@@H]3O[C@H]1C[C@H](N)[C@H](O[C@@H]2CCCCO2)[C@H](C)O1
Output line: true (1)

Input line: How did this test come out for O=C(OCc1ccccc1)c1ccccc1 ?
Output line: false (0)

Input line: Please share the test call associated with NC(=O)C(c1ccccc1)(c1ccccc1)[C@@H]1CCN(CCc2ccc3c(c2)CCO3)C1 .
Output line: false (0)

Input line: Short answer needed: outcome of this test for CN1CCN(c2cc3c(nn2)Oc2ccccc2N3C)CC1 ?
Output line: false (0)

Input line: Dear all, I need the recorded test outcome for CC(=O)SCC(CC(=O)c1ccc(C)cc1)C(=O)O (stereo unspecified) , thank you.
Output line: false (0)

Input line: Per the assay record, what outcome was assigned to [O-][n+]1ccccc1SSc1cccc[n+]1[O-] ?
Output line: true (1)

Input line: Called result for CC(N)C(=O)OC(C)(C)Cc1ccc(Cl)cc1 (stereo unspecified)
Output line: false (0)

Input line: Which outcome was assigned to CCCCCCCCCCCC(=O)[O][Sn]([CH2]CCC)([CH2]CCC)[O]C(=O)CCCCCCCCCCC in this test?
Output line: false (0)

Input line: Per the records of this test, what outcome belongs to O=C(O)/C=C\C(=O)O ?
Output line: false (0)

Input line: Write down the call the test reported for this molecule. Item: CC(C(=O)O)c1ccc2c(c1)[nH]c1ccc(Cl)cc12 (stereo unspecified)
Output line: false (0)

Input line: Recorded test outcome, item CCOc1ccc2nc(S(N)(=O)=O)sc2c1
Output line: false (0)

Input line: Identify the outcome logged in this assay for the molecule shown: Cc1c(Nc2ncccc2C(=O)O)cccc1C(F)(F)F
Output line: false (0)

Input line: Give the logged outcome of this assay for the following molecule: CN(C)c1ccc(C(=C2C=CC(=[N+](C)C)C=C2)c2ccccc2)cc1
Output line: true (1)

Input line: Fill in: this test's call for CCCSc1ccc2nc(NC(=O)OC)[nH]c2c1 is ___
Output line: true (1)

Input line: // return assay outcome for CO[C@@]1(NC(=O)Cc2cccs2)C(=O)N2C(C(=O)O)=C(COC(N)=O)CS[C@@H]21
Output line: false (0)

Input line: Recorded test outcome, item c1ccc2sc(SN3CCOCC3)nc2c1
Output line: false (0)

Input line: What did the test return for Cc1ccc(O)c(-n2nc3ccccc3n2)c1 ?
Output line: false (0)

Input line: Status in this test for CCCCCCCC/C=C/C(=O)O ?
Output line: false (0)

Input line: Per the records of this test, what outcome belongs to O=C(/C=C/c1ccccc1)NCCO ?
Output line: false (0)

Input line: Record lookup: outcome of this test for CC(C(=O)O)c1ccc(C(=O)c2ccccc2)s1 (stereo unspecified) ?
Output line: false (0)

Input line: Which outcome did this test record for the molecule CCCCCCCCCCCCCCCC(=O)OC(C)C ?
Output line: false (0)

Input line: I would be grateful if you could indicate the recorded call for NCCO .
Output line: false (0)

Input line: Short answer needed: outcome of this test for CCC1C(=O)OCC1Cc1cncn1C (stereo unspecified) ?
Output line: false (0)
